System: DU-145
Assay: cells
Type: functional, cell-based, Homo sapiens
Settings: Homo sapiens, DU-145
Description: SANGER: Inhibition of human DU-145 cell growth in a cell viability assay.
Each entry below carries its reported pIC50.
# pIC50 = -log10(concentration in molar units)

>>> reported_result("CC1(C)CNc2cc(NC(=O)c3cccnc3NCc3ccncc3)ccc21")
6.33

Query :: Which value of pIC50 has been reported for CC(C)CCN1c2nc(Nc3cc(F)c(O)c(F)c3)ncc2N(C)C(=O)C1C (stereo not given) in the records?
Result :: 5.68

Query :: Same thing, different compound: `CCN(CC)CCCCNc1ncc2cc(-c3cc(OC)cc(OC)c3)c(NC(=O)NC(C)(C)C)nc2n1`
Result :: 5.80

---

Test system: NB14;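 further: growth inhibition of NB14 cells measured with a cell viability assay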
Assay: cells
Format: functional, cell-based, Homo sapiens
Settings: Homo sapiens, NB14
Description: SANGER: Inhibition of human NB14 cell growth in a cell viability assay.
Consider the following compounds and their measured IC50 readings.

Query :: Fill in the recorded IC50 for this compound, with NB14 as test system: `OCCCNc1cc(-c2ccnc(Nc3cccc(Cl)c3)n2)ccn1`
Result :: > 0.256 µM

Query :: Follow-up entry: N[C@@H](CSC(c1ccccc1)(c1ccccc1)c1ccccc1)C(=O)O [S-TRITYL-L-CYSTEINE]
Result :: > 5.12 µM

Query :: Moving on to CCN(CC)CCCCNc1ncc2cc(-c3cc(OC)cc(OC)c3)c(NC(=O)NC(C)(C)C)nc2n1 [PD-173074]
Result :: > 2 µM

---

IC50 listing for selected compounds.
System: TCC-SUP
Test: cells
Format: functional, cell-based, Homo sapiens
Details: Homo sapiens, TCC-SUP
Description: SANGER: Inhibition of human TCCSUP cell growth in a cell viability assay.

Here is how some compounds turned out for IC50.
>>> reported_result("Nc1cccc2c1CN(C1CCC(=O)NC1=O)C2=O (stereo unspecified) [LENALIDOMIDE]")
"> 5 µM"
>>> reported_result("Cn1cnc2c(F)c(Nc3ccc(Br)cc3Cl)c(C(=O)NOCCO)cc21")
"> 4 µM"
>>> reported_result("CS(=O)(=O)c1ccc(C(=O)Nc2ccc(Cl)c(-c3ccccn3)c2)c(Cl)c1")
"> 10 µM"

Query :: # value lookup — system TCC-SUP, readout IC50, item `Nc1ccn([C@@H]2O[C@H](CO)[C@@H](O)C2(F)F)c(=O)n1`;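 further: growth inhibition of TCC-SUP cells, read out with a cell viability assay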
Result :: > 1.02 µM

Query :: Also `CCN(CC)CCCCNc1ncc2cc(-c3cc(OC)cc(OC)c3)c(NC(=O)NC(C)(C)C)nc2n1` , if possible.
Result :: > 2 µM

Query :: Check `Oc1ccc2ccccc2c1SSc1c(O)ccc2ccccc12` too.
Result :: > 32 µM

---

Recorded pIC50 for the following compounds
Test system: T98G;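 further: growth inhibition of T98G cells, read out by a cell viability assay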
Test: cells
Assay type: functional, cell-based, Homo sapiens
Conditions: Homo sapiens, T98G
Description: SANGER: Inhibition of human T98G cell growth in a cell viability assay.
Counter-ions that a name gives are not always drawn.
To interpret pIC50, take it as minus log10 of a concentration measured in moles per litre.

Some compounds with recorded pIC50:
>>> reported_result("Cc1cc([N+](=O)[O-])ccc1NS(=O)(=O)c1cc(Cl)ccc1Cl")
4.97
>>> reported_result("CC(C)c1ccccc1Cc1cc(C(=O)Nc2ccc(S(=O)(=O)c3ccccc3C(C)(C)C)cc2)c(O)c(O)c1O")
6.22
>>> reported_result("CO[C@H]1C[C@@H]2CC[C@@H](C)[C@@](O)(O2)C(=O)C(=O)N2CCCC[C@H]2C(=O)O[C@H]([C@H](C)C[C@@H]2CC[C@@H](OC(=O)C(C)(CO)CO)[C@H](OC)C2)CC(=O)[C@H](C)/C=C(\\C)[C@@H](O)[C@@H](OC)C(=O)[C@H](C)C[C@H](C)/C=C/C=C/C=C/1C [TEMSIROLIMUS]")
7.58
>>> reported_result("Nc1ccn([C@@H]2O[C@H](CO)[C@@H](O)C2(F)F)c(=O)n1 [GEMCITABINE]")
6.27
>>> reported_result("COC1=CC(c2cc3ccccc3[nH]2)=N/C1=C\\c1[nH]c(C)cc1C [OBATOCLAX MESYLATE]")
5.30

# context switch: different compound, same pIC50
Query :: State the recorded pIC50 for this entry: `COc1cc2c(Nc3ccc(NC(=O)c4ccccc4)cc3)ncnc2cc1OCCCN1CCOCC1`
Result :: 5.40

---

Listed below: pIC50 values for each entry.
System: SW982
Assay: cells
Format: functional, cell-based, Homo sapiens
Settings: Homo sapiens, SW982
Description: SANGER: Inhibition of human SW982 cell growth in a cell viability assay.
pIC50: −log10 of the molar value.

>>> reported_result("C=C(c1ccc(C(=O)O)cc1)c1cc2c(cc1C)C(C)(C)CCC2(C)C [BEXAROTENE]")
"< 5.10"
>>> reported_result("Cc1cn(-c2cc(NC(=O)c3ccc(C)c(Nc4nccc(-c5cccnc5)n4)c3)cc(C(F)(F)F)c2)cn1 [NILOTINIB]")
"< 5.70"
>>> reported_result("Nc1ccn([C@@H]2O[C@H](CO)[C@@H](O)C2(F)F)c(=O)n1 [GEMCITABINE]")
"> 8.40"
>>> reported_result("COc1cc(-c2nn([C@H]3CC[C@H](N4CCN(C(C)=O)CC4)CC3)c3ncnc(N)c23)ccc1NC(=O)c1cc2ccccc2n1C")
6.41
>>> reported_result("Nc1cccc2c1CN(C1CCC(=O)NC1=O)C2=O (stereo unspecified) [LENALIDOMIDE]")
"< 5.30"

Query :: Consider the molecule CCC/C=C/C=C/C(=O)O[C@H]1/C(=C/C(=O)OC)C[C@H]2C[C@H]([C@@H](C)O)OC(=O)C[C@H](O)C[C@@H]3C[C@H](OC(C)=O)C(C)(C)[C@](O)(C[C@@H]4C/C(=C/C(=O)OC)C[C@H](/C=C/C(C)(C)[C@]1(O)O2)O4)O3 [BRYOSTATIN 1] and give its measured pIC50.
Result :: < 8.10

Query :: Then CO[C@H]1C[C@@H]2CC[C@@H](C)[C@@](O)(O2)C(=O)C(=O)N2CCCC[C@H]2C(=O)O[C@H]([C@H](C)C[C@@H]2CC[C@@H](OC(=O)C(C)(CO)CO)[C@H](OC)C2)CC(=O)[C@H](C)/C=C(\C)[C@@H](O)[C@@H](OC)C(=O)[C@H](C)C[C@H](C)/C=C/C=C/C=C/1C [TEMSIROLIMUS] ?
Result :: < 6.70

Query :: Would you kindly repeat that for CS(=O)(=O)c1ccc(C(=O)Nc2ccc(Cl)c(-c3ccccn3)c2)c(Cl)c1 [VISMODEGIB] ?
Result :: < 5.00

Query :: Proceed to `OCCCNc1cc(-c2ccnc(Nc3cccc(Cl)c3)n2)ccn1`
Result :: 7.60

Query :: Another: `N#Cc1c(O)c2c(-c3ccc(-c4ccccc4O)cc3)csc2[nH]c1=O`
Result :: < 5.99

Query :: Subsequent entry: `COc1cc2c(Nc3ccc(NC(=O)c4ccccc4)cc3)ncnc2cc1OCCCN1CCOCC1`
Result :: < 5.40

---

List of pIC50 values.
System: CP66-MEL;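 further: growth inhibition of CP66-MEL cells determined in a cell viability assay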
Assay: cells
Assay type: functional, cell-based, Homo sapiens
Settings: Homo sapiens, CP66-MEL
Description: SANGER: Inhibition of human CP66-MEL cell growth in a cell viability assay.
pIC50: −log10 of the molar value.

Example cases with answers are listed next.
>>> reported_result("COc1cc(-c2nn([C@H]3CC[C@H](N4CCN(C(C)=O)CC4)CC3)c3ncnc(N)c23)ccc1NC(=O)c1cc2ccccc2n1C")
"< 5.29"
>>> reported_result("C=C(c1ccc(C(=O)O)cc1)c1cc2c(cc1C)C(C)(C)CCC2(C)C [BEXAROTENE]")
"< 5.10"

We now examine a further compound.
Query :: Field request: pIC50 | item: Cc1cn(-c2cc(NC(=O)c3ccc(C)c(Nc4nccc(-c5cccnc5)n4)c3)cc(C(F)(F)F)c2)cn1 [NILOTINIB]
Result :: < 5.70

---

Tested on: MV4-11;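 further: cell viability readout measuring growth inhibition of human MV-4-11 cells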
Assay: cells
Type: functional, cell-based, Homo sapiens, MV-4-11
Conditions: Homo sapiens, MV4-11
Description: SANGER: Inhibition of human MV-4-11 cell growth in a cell viability assay.
measured.property: IC50 (nM)
Write the number in nM without appending the unit.

>>> reported_result("CC(=O)O[C@H]1C(=O)[C@@]2(C)[C@H]([C@H](OC(=O)c3ccccc3)[C@]3(O)C[C@H](OC(=O)[C@H](O)[C@@H](NC(=O)c4ccccc4)c4ccccc4)C(C)=C1C3(C)C)[C@]1(OC(C)=O)CO[C@@H]1C[C@@H]2O [PACLITAXEL]")
4.75

Query :: What value of IC50 has been reported for the following compound? COc1cc2ncn(-c3cc(OCc4ccccc4C(F)(F)F)c(C(N)=O)s3)c2cc1OC [GW843682X]
Result :: 25.9

Query :: Try the compound CO[C@H]1C[C@@H]2CC[C@@H](C)[C@@](O)(O2)C(=O)C(=O)N2CCCC[C@H]2C(=O)O[C@H]([C@H](C)C[C@@H]2CC[C@@H](OC(=O)C(C)(CO)CO)[C@H](OC)C2)CC(=O)[C@H](C)/C=C(\C)[C@@H](O)[C@@H](OC)C(=O)[C@H](C)C[C@H](C)/C=C/C=C/C=C/1C [TEMSIROLIMUS]
Result :: 18.9

Query :: Query `OCCCNc1cc(-c2ccnc(Nc3cccc(Cl)c3)n2)ccn1` next
Result :: 43.1

Query :: One more compound: COc1cccc2c1C(=O)c1c(O)c3c(c(O)c1C2=O)C[C@@](O)(C(=O)CO)C[C@@H]3O[C@H]1C[C@H](N)[C@H](O)[C@H](C)O1 [DOXORUBICIN]
Result :: 10
